Kindly supply the reported IC50 values for the records listed here.
- target_or_system: Acrosin (Homo sapiens)
- protocol_notes: Inhibition of human sperm acrosin using BAPNA as substrate after 3 hrs by spectrophotometric analysis
Give bare numbers, in µM.

Completed entries (count: 8):
> print(dat)
                                   molecule  quantitative.readout
1  O=C(NCCCO)c1cc(-c2cccc([N+](=O)[O-])c2)[nH]n1                   780
2  CC(O)CNC(=O)c1cc(-c2ccccc2)[nH]n1 (configuration not stated)                    60
3     COc1ccc(-c2cc(C(=O)NCCOCCO)n[nH]2)cc1                  6020
4     O=C(NCCOCCO)c1cc(-c2ccc(Br)cc2)[nH]n1                 10000
5  CC(CO)NC(=O)c1cc(-c2ccc(Br)cc2)[nH]n1 (configuration not stated)                   880
6        COc1ccc(-c2cc(C(=O)NCCO)n[nH]2)cc1                    90
7       O=C(c1cc(-c2ccccc2)[nH]n1)N(CCO)CCO                  1700
8  CC(CO)NC(=O)c1cc(-c2ccccc2)[nH]n1 (configuration not stated)                  3000

Please look at the items below and tell me IC50 for each one, in order.
1. O=C(NCCCO)c1cc(-c2ccccc2)[nH]n1
2. O=C(NC(CO)(CO)CO)c1cc(-c2ccc([N+](=O)[O-])cc2)[nH]n1
3. CC(O)CN(CC(C)O)C(=O)c1cc(-c2ccccc2)[nH]n1 (configuration not stated)

Solution:
540
5220
10

Problem: Form field - read-out: IC50; system: Acrosin (Homo sapiens); submitted item: `O=C(NCCO)c1cc(-c2ccc([N+](=O)[O-])cc2)[nH]n1`
Solution: 2700

----------
- target_or_system: Acrosin (Homo sapiens, UniProt P10323)
- Sequence (P10323 20-42 limits assumed): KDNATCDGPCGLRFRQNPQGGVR
- Sequence (P10323 43-343 limits assumed): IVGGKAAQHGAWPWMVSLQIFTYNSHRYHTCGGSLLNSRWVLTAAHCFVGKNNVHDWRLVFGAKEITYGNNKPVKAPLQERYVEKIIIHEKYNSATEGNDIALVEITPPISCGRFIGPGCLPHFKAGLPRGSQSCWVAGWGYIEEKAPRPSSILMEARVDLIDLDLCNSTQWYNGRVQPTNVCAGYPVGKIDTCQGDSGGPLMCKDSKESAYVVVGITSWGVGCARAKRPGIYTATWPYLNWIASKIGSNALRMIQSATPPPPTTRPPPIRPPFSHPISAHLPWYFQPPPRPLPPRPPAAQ
- protocol_notes: Inhibition of human sperm acrosin using BAPNA as substrate after 3 hrs by spectrophotometric analysis
For each record, write down the corresponding IC50.
Numbers only, in µM.

The following molecules have reported results that may help.
> print(dat)
                                   molecule  quantitative.readout
1  CC(O)CNC(=O)c1cc(-c2cccc([N+](=O)[O-])c2)[nH]n1 (stereo not given)                  1830
2  O=C(NCCO)c1cc(-c2cccc([N+](=O)[O-])c2)[nH]n1                   760
3   O=C(c1cc(-c2ccc(Br)cc2)[nH]n1)N(CCO)CCO                  1520
4  CN(CCO)C(=O)c1cc(-c2ccc([N+](=O)[O-])cc2)[nH]n1                  2000
5  CN(CCO)C(=O)c1cc(-c2cccc([N+](=O)[O-])c2)[nH]n1                   790

Hey, quick one: what's IC50 for each of these?
1. CC(O)CN(CC(C)O)C(=O)c1cc(-c2ccc([N+](=O)[O-])cc2)[nH]n1 (stereo not given)
2. O=C(NCCOCCO)c1cc(-c2ccc([N+](=O)[O-])cc2)[nH]n1

Solution:
1. 1210
2. 2070

Hello, I would appreciate it if you could give IC50 for each entry below.
1. O=C(NCCCO)c1cc(-c2ccc(Br)cc2)[nH]n1
2. COc1ccc(-c2cc(C(=O)N(C)CCO)n[nH]2)cc1
3. CC(O)CNC(=O)c1cc(-c2ccc(Br)cc2)[nH]n1 (stereo not given)

Solution:
[380, 410, 330]
